System: MS2 coat protein
testMethodNotes: apparent KD of MS2 coat protein; designed switch direction (-1 OFF switch, 1 ON switch): -1; higher = weaker reporter binding
cond: Eterna round: R95; input ligand: microRNA oligo, concentration not stated
Would you please tag the item 1.0 when its apparent KD of MS2 coat protein is 20 nM or above, and 0.0 when it is below?

INPUT: Answer whether apparent KD of MS2 coat protein of AGAUGGCGAGGAUAUACAUGAGGAUCACCCAUGUGAGAUAAGAAAGUGAGGAAGAAAAGUAGAAGGCGCUGUCA [Mat - Exclusion 3 - Mod of Salish D12] (puzzle: Exclusion 3) is greater than or equal to 20 nM.
OUTPUT: 1.0

INPUT: For UUAUAUAGUGUGAGGAUAUGCUGGUCCUUGGAUCAGCAGAAGGCACAUGAGGAUCACCCAUGUAGUUUAUUUUU [Mat - Exclusion 4 - JL Mod - D4] (puzzle: Brourd's mod of Exclusion 4) then?
OUTPUT: 1.0

INPUT: For CCGAUAAUGUAGGAUAUCGUAUCGGAGACGAUACGAGAAGGACAAACAUGAGGAUCACCCAUGUUCCUUAACGG [Mat - Exclusion 6 - Eli Mod - D74] (puzzle: Exclusion 6) then?
OUTPUT: 0.0

INPUT: For GUCACUAGAGGAUAUACAAUGGUAUAUGAUCCUAGAGACAUACAUGAGGAUCACCCAUGUAGAAGGCUAGUAAU [Exclusion 2 - 6] (puzzle: Exclusion 2) then?
OUTPUT: 1.0

INPUT: For GGAUCGAGUGUGAGGAUAUGCUGGUCCUUGGAUCAGCAGAAGGCACAUGAGGAUCACCCAUGUGAAGACGAUCC [Mat - Exclusion 4 - JL Mod - D73] (puzzle: Brourd's mod of Exclusion 4) then?
OUTPUT: 1.0

INPUT: For AGUAACCGUCACGAAAGUGAUGGUUACACAAGCAAUGAAACAUGAGGAUCACCCAUGUCCUCAUUUGCUCGUCUUAU [Sensor 3 - 40] (puzzle: Sensor v3, turn-off variant 2) then?
OUTPUT: 1.0

INPUT: For CUAUGUUAGCAGGAUAUGCCAUUAUUCCUUUACGCAGAAGGGCUUACAUGAGGAUCACCCAUGUUACAUUUCAU [JR_E6_Sub084] (puzzle: Exclusion 6) then?
OUTPUT: 0.0

INPUT: For GAAAAGGUAGGAUAUACGAUAAAAAAGGGUAGAAAAAAAACACAUGAGGAUCACCCAUGUAGAAGGACCAAAAG [salish99_ex2_r3_086] (puzzle: Exclusion 2) then?
OUTPUT: 1.0

INPUT: For CCAGGCAGUGUGAGGAUAUGCUGGUGCAUACAUCAGCAGAAGGCACAUGAGGAUCACCCAUGUGAAGAGCUUGG [Mat - Exclusion 4 - JL Mod - D98] (puzzle: Brourd's mod of Exclusion 4) then?
OUTPUT: 0.0

====

Test system: MS2 coat protein
testMethodNotes: apparent KD of MS2 coat protein; higher = weaker reporter binding
cond: Eterna round: R107; input ligand: tryptophan 2.4 mM
Binning of apparent KD of MS2 coat protein into classes: low: < 20 nM; intermediate: ≥ 20 nM and < 60 nM; high: ≥ 60 nM

recordSequence	categoryLabel
GCACCAGGUACGGAUACCAGCUAUAGGUACAGCGGAGGACAUGAGGAUCACCCAUGUGGUAGCCCUUGGCAGCUGUACCUGGUGC [EThB NP+V+V2 #1 +-Same Structure]	low
ACCUCAUGUAGAAGGAGCGUCAGAAGCUACAGACAUGAGGAUCACCCAUGUUAGUUGAUCUGACAGGUAGGUCGCUACAGCAGGA [#23 Same State - Arginine B]	intermediate
ACAUGAGGAUCACCCAUGUACAUGAGGGAAGGAGCGGUACAUGAGCCAGGUAGGUCGCCCAUGAGCAUCAGGCAUGUACAUCAGC [kokmmullin]	intermediate
CGAUCUUUCGAAAGAAGGAUCGAUUCUGAUACCAGAGACGAAAGUCUCCCUUGGCAGCAGUGCCAACAUGAGGAUCACCCAUGUA [Theophylline A 8]	intermediate
AGAGUCAGACAAAAGUCUGGCUCAGCCGAAGGAGCGUCCGAAAGGACAGGUAGGUCGCGGUUGCAUGAGGAUCACCCAUGUUCCU [ArgAS 30 #OpenEnded #AlternativeMS2]	high
AGUACAUGAGGAUCACCCAUGUACCAUGAUACCAGACAUGAAAAUGUCCCUUGGCAGCGUGGGUGAGGCAUCCGAAAGGAUGCCC [#05 SameState-TheophyllineA]	high
UCGGACAUGAGGAUCACCCAUGUAAAUCCUCGAGGACCGGUACGGCCGCCACUCGAACGAGUGGCGCGCGAGUGCGCACUCGCGC [aFa]	intermediate
UUACAACUAAUGGAUACCAGCCGCGUGCUAGUGGUAGCAUACAUGAGGAUCACCCAUGUCGGCCCUUGGCAGCCACGCCCAUGCU [theeternabot_exclusion_MS2_Theo_B_2]	low
UAAACAUGAGGAUCACCCAUGUUGGAUGAAGGAGCGACCAGAGGGUCAGGUAGGUCGCAUCACAUGAGGAUCACCCAUGUCAUUU [DOUBLE!!! :-D #12]	high
CAGCCUGAUUGGUAAAUCCCUCAUCGUGAUACCAGUCGAGUGAUCGACCCUUGGCAGCACAUGAGGAUCACCCAUGUGCGCGUAA [Raisener]	intermediate

INPUT: For the record ACCUGUACGAAAAGUGCAGGACACGGAAUACGAGGACCGGUACGGCCGCCACUCGGAAAACCUGAGGAUCACCCUGGUAACCGUG [TrypAS 11 #AlternativeMS2 #Zipper #StaticStem] , report the class its apparent KD of MS2 coat protein corresponds to.
OUTPUT: intermediate
